Tested on: TK-10
assay name: NCI tumour cell line growth inhibition, 48 h
Active and inactive are the calls of the source. Cut-off read from the data, not from the text of the source: active = GI50 up to about 1.1 µM and inactive = higher.
Outcome (select one): active, inactive

Before answering, review these 10 worked examples.
{"compound": "CCN(CC)c1ccc2cc(-c3nnc(-c4ccccc4)o3)c(=O)oc2c1", "group label": "inactive"}
{"compound": "CC(C)OP(=O)(c1ccccc1)c1ccc2c(c1)OCCOCCOCCOCCO2 (stereo unspecified)", "group label": "inactive"}
{"compound": "CN(C)CCNC(=O)c1cccc2c1nc(-c1cccnc1)c1ccccc12", "group label": "inactive"}
{"compound": "O=C1CCC2(c3ccc(Cl)cc3)Nc3ncncc3N12 (stereo unspecified)", "group label": "inactive"}
{"compound": "CCOC(=O)c1oc2cc3c(c4c2c1-c1ccccc1N4C)C=CC(C)(C)O3", "group label": "inactive"}
{"compound": "CC1(c2ccc(Cl)cc2)C=C(c2ccc(Cl)cc2)C(C#N)=C(C(C#N)C#N)N1.CNC (stereo unspecified)", "group label": "inactive"}
{"compound": "COC(=O)C(=CNC(N)=O)C(=O)OC", "group label": "inactive"}
{"compound": "N#CC1C(=O)NC2=C(CCOc3c2ccc2ccccc32)C1c1ccc(F)cc1 (stereo unspecified)", "group label": "inactive"}
{"compound": "C/C(=N\\NC(=O)N/N=C(\\C)c1ccccn1)c1ccccn1", "group label": "active"}
{"compound": "COc1ccc(C(=O)/C=C/S/C(=N/C#N)SC)cc1", "group label": "inactive"}

// outcome(item) with item = CC(=O)c1c2c(cc3c1CC1(Cc4cc5c(cc4C1=O)CCC5)C3)CCC2 (stereo unspecified) inactive

----------
Tested on: BT-549
assay name: NCI tumour cell line growth inhibition, 48 h
Calls of active or inactive are those of the source. Rule as the data show it: active = GI50 up to about 1.1 µM and inactive = higher.
Reported values of GI50 for individual entries

Example compounds with recorded GI50:
{"compound": "CCC1OC(=O)CC(O)C(C)C(OC2OC(C)C(O)C(N(C)C)C2O)C(CC=O)CC(C)C(=O)/C=C/C2(C)OC2C1C (stereo not given)", "GI50": "37.3 µM (inactive)"}
{"compound": "O=c1sc(Nc2ccc3ccccc3c2Cl)nc2ccccc12", "GI50": "> 100 µM (inactive)"}
{"compound": "Fc1ccc(C(OCCN2CCN(CCCc3ccccc3)CC2)c2ccc(F)cc2)cc1", "GI50": "7.05 µM (inactive)"}
{"compound": "Oc1ccccc1/C=N/N1C(=S)N(C23CC4CC(CC(C4)C2)C3)C(=N\\c2ccccc2)/C1=N/c1ccccc1", "GI50": "38.9 µM (inactive)"}

Record summary for "COc1ccccc1C[C@@H]1OC2(C=CC(=O)C=C2)O[C@H]1Cc1ccccc1OC" : reported GI50 = 2.64 µM (inactive)

----------
System: MDA-MB-435
assay name: NCI tumour cell line growth inhibition, 48 h
Active and inactive are the calls of the source. No stated cut-off is given here; in the data, active = GI50 up to about 1.1 µM and inactive = higher.
Outcome (select one): active, inactive

Before answering, review these 8 worked examples.
{"compound": "C=C1C(=O)O[C@H]2[C@H]3O[C@@H](C[C@@H]12)[C@](C)(O)CCCC(C)=CCC[C@H]3C", "group label": "inactive"}
{"compound": "COc1ccc2c(c1)C(N)=C(c1ccccc1OC)C2=O", "group label": "inactive"}
{"compound": "N#CCCN(CCC#N)c1ccc(/C=C2\\N=C(c3ccccc3)N(c3ccc(F)cc3)C2=O)cc1", "group label": "inactive"}
{"compound": "COC(=O)C1C(O)C(C)C(O)C(C)/C=C\\C=C(C)C(=O)Nc2c(C)c(OC(C)=O)c3c(c2O)C(=O)C(C)=C2OCOC(=C23)C(C)=CC(C)(O)C(O)C(C)C1O (centres undefined)", "group label": "inactive"}
{"compound": "O=c1s[s+]([O-])c2ccccc12 (centres undefined)", "group label": "inactive"}
{"compound": "C/C(=N\\NC(=O)N/N=C(\\C)c1ccccn1)c1ccccn1", "group label": "active"}
{"compound": "CCOC(=O)C(NC(=O)c1cccc(Cl)c1)(Nc1ccc(S(=O)(=O)Nc2cc(C)on2)cc1)C(F)(F)F (centres undefined)", "group label": "inactive"}
{"compound": "Cc1ccc2nc(NC(=O)/C(Cc3nc4ccc(Cl)cc4nc3O)=N\\NC(C)(C)C)sc2c1", "group label": "inactive"}

// outcome(item) with item = COc1cc(I)c2c3c1OC1C34CCN(C)C(C2)C4=CC(I)C1(OC)OC (centres undefined) inactive

These entries and their values trace back to ChEMBL document CHEMBL1201862.
